- Test system: fli1:EGFP zebrafish embryos
- Assay procedure: fli1:EGFP zebrafish embryo angiogenesis assay (intersegmental vessel outgrowth and number)
- Format: in vivo
- Condition label: Danio rerio, 24 h, 24 hpf embryos exposed 24 h; screened 1-200 μg/mL; where no activity was seen the concentration shown is the lowest screened
Here the recorded minimal effective concentration is given for each entry.
Readout: minimal effective concentration

compound="O=C1c2ccccc2C(=O)N1c1nc2ccc(C(F)(F)F)cc2s1 [Compound C59]" readout="minimal effective concentration" observed_measurement="10 µg/mL"
compound="O=C1NC(=S)CCC1N1C(=O)c2ccccc2C1=S (centres unmarked) [Compound C2]" readout="minimal effective concentration" observed_measurement="10 µg/mL"
compound="O=C1c2ccccc2CN1C12CC3CC(CC(O)(C3)C1)C2 [Compound C86]" readout="minimal effective concentration" observed_measurement="10 µg/mL"
compound="Nc1ccc2c(c1)OC(=O)C(C1CCC(=O)NC1=O)C2=O (centres unmarked) [Compound C24]" readout="minimal effective concentration" observed_measurement="50 µg/mL"
compound="Nc1cccc2c1CN(C1CCC(=O)NC1=O)C2=S (centres unmarked) [Compound C29]" readout="minimal effective concentration" observed_measurement="10 µg/mL"

* * *

- Test system: fli1:EGFP zebrafish embryos
- Assay procedure: fli1:EGFP zebrafish embryo angiogenesis assay (intersegmental vessel outgrowth and number)
- Format: in vivo
- Condition label: fli1:EGFP embryos, 24 h incubation, result in words
Readout: Anti-angiogenic activity (loss of ISVs or inhibition of ISV outgrowth)

compound="CC(N1Cc2c(N)cccc2C1=O)C12CC3CC(CC(C3)C1)C2 (stereo not drawn)" observed_measurement="anti-angiogenic activity"
compound="O=C1c2cccc([N+](=O)[O-])c2CN1C1C2CC3CC(C2)CC1C3 (stereo not drawn)" observed_measurement="anti-angiogenic activity"

* * *

Here the recorded minimal effective concentration is given for each entry.
- Test system: fli1:EGFP zebrafish embryos
- Assay procedure: fli1:EGFP zebrafish embryo angiogenesis assay (intersegmental vessel outgrowth and number)
- Assay type: in vivo
- Condition label: Danio rerio, 24 h, 24 hpf embryos exposed 24 h; screened 1-200 μg/mL; where no activity was seen the concentration shown is the lowest screened
Readout: minimal effective concentration (µg/mL)

compound="O=C1NC(=S)CCC1N1C(=O)c2cccc([N+](=O)[O-])c2C1=O (stereo not drawn) [Compound C7]" readout="minimal effective concentration" unit_name=µg/mL observed_measurement=10
compound="O=C1CCC(N2C(=O)c3ccncc3C2=O)C(=O)N1 (stereo not drawn) [Compound C58, 5-Aza-thalidomide]" readout="minimal effective concentration" unit_name=µg/mL observed_measurement=10

* * *

- System: WT Zebrafish
- Assay procedure: WT zebrafish embryo developmental defect (teratogenicity) screen
- Format: in vivo
- Condition label: screened 1-200 μg/mL; where no activity was seen the concentration shown is the lowest screened
Here the recorded Lowest effective concentration, WT Zebrafish assay is given for each entry.
Readout: Lowest effective concentration, WT Zebrafish assay (µg/mL)

compound="Nc1cccc2c1CN(C1C3CC4CC(C3)CC1C4)C2=O (centres unmarked) [Compound C83]" observed_measurement=10
compound="O=C1NC(=S)CCC1N1C(=O)c2cccc([N+](=O)[O-])c2C1=O (centres unmarked) [Compound C7]" observed_measurement=10
compound="CC(=O)Oc1ccc2c(c1)C(=O)N(C1CCC(=O)NC1=O)C2=O (centres unmarked) [Compound C18]" observed_measurement=50
compound="O=C1c2ccccc2C(=O)N1c1nc2ccc(C(F)(F)F)cc2s1 [Compound C59]" observed_measurement=100
compound="O=C1CCC(N2C(=O)c3ccncc3C2=O)C(=O)N1 (centres unmarked) [Compound C58, 5-Aza-thalidomide]" observed_measurement=5
compound="Nc1ccc2c(c1)OC(=O)C(C1CCC(=O)NC1=O)C2=O (centres unmarked) [Compound C24]" observed_measurement=50
compound="CC(N1Cc2c(N)cccc2C1=O)C12CC3CC(CC(C3)C1)C2 (centres unmarked) [Compound C81]" observed_measurement=10
compound="O=C1c2ccccc2C(=S)N1C1CCC(=S)NC1=S (centres unmarked) [Compound C4]" observed_measurement=10
compound="O=C1NC(=S)CCC1N1C(=O)c2ccccc2C1=S (centres unmarked) [Compound C2]" observed_measurement=10
compound="O=C1c2cccc([N+](=O)[O-])c2CN1C12CC3CC(CC(C3)C1)C2 [Compound C84]" observed_measurement=10
compound="O=C1c2cccc([N+](=O)[O-])c2CN1C1C2CC3CC(C2)CC1C3 (centres unmarked) [Compound C82]" observed_measurement=5

* * *

- Test system: WT Zebrafish
- Assay procedure: WT zebrafish embryo developmental defect (teratogenicity) screen
- Assay type: in vivo
- Condition label: Figure 4, result in words
Readout: Pectoral fin development / fin length in zebrafish embryos

compound="CC(N1Cc2c(N)cccc2C1=O)C12CC3CC(CC(C3)C1)C2 (centres unmarked) [Compound C81]" observed_measurement=reductions
compound="O=C1c2cccc([N+](=O)[O-])c2CN1C1C2CC3CC(C2)CC1C3 (centres unmarked) [Compound C82]" observed_measurement=reductions
compound="CC(=O)Oc1ccc2c(c1)C(=O)N(C1CCC(=O)NC1=O)C2=O (centres unmarked) [Compound C18]" observed_measurement=reductions

* * *

Here the recorded minimal effective concentration is given for each entry.
- System: Tg(MPO::EGFP)^114 zebrafish
- Assay procedure: Tg(MPO::EGFP)^114 zebrafish tail fin clip assay of neutrophil migration to the wound site
- Assay type: in vivo
- Condition label: Danio rerio, Neutrophil; fin clipped at 72 hpf, imaged at 24 h; screened 1-200 μg/mL; where no activity was seen the concentration shown is the lowest screened
Readout: minimal effective concentration (µg/mL)

compound="Nc1cccc2c1CN(C1C3CC4CC(C3)CC1C4)C2=O (stereo not shown) [Compound C83]" readout="minimal effective concentration" observed_measurement=20
compound="O=C1c2ccccc2C(=S)N1C1CCC(=S)NC1=S (stereo not shown) [Compound C4]" readout="minimal effective concentration" observed_measurement=10
compound="CC(N1Cc2c(N)cccc2C1=O)C12CC3CC(CC(C3)C1)C2 (stereo not shown) [Compound C81]" readout="minimal effective concentration" observed_measurement=50
compound="CC(=O)Oc1ccc2c(c1)C(=O)N(C1CCC(=O)NC1=O)C2=O (stereo not shown) [Compound C18]" readout="minimal effective concentration" observed_measurement=50

* * *

- Tested on: Tg(MPO::EGFP)^114 zebrafish
- Assay procedure: Tg(MPO::EGFP)^114 zebrafish tail fin clip assay of neutrophil migration to the wound site
- Format: in vivo
- Condition label: Danio rerio, Neutrophil; fin clipped at 72 hpf, imaged at 24 h; screened 1-200 μg/mL; where no activity was seen the concentration shown is the lowest screened
Here the recorded minimal effective concentration is given for each entry.
Readout: minimal effective concentration (µg/mL)

molecule="O=C1CCC(N2C(=O)c3ccncc3C2=O)C(=O)N1 (stereo not drawn) [Compound C58, 5-Aza-thalidomide]" system_name="Tg(MPO::EGFP)^114 zebrafish" readout="minimal effective concentration" observed_measurement=5
molecule="Nc1ccc2c(c1)OC(=O)C(C1CCC(=O)NC1=O)C2=O (stereo not drawn) [Compound C24]" system_name="Tg(MPO::EGFP)^114 zebrafish" readout="minimal effective concentration" observed_measurement=50
molecule="O=C1c2ccccc2CN1C12CC3CC(CC(O)(C3)C1)C2 [Compound C86]" system_name="Tg(MPO::EGFP)^114 zebrafish" readout="minimal effective concentration" observed_measurement=100
molecule="Nc1cccc2c1CN(C1CCC(=O)NC1=O)C2=S (stereo not drawn) [Compound C29]" system_name="Tg(MPO::EGFP)^114 zebrafish" readout="minimal effective concentration" observed_measurement=5
molecule="O=C1NC(=S)CCC1N1C(=O)c2ccccc2C1=S (stereo not drawn) [Compound C2]" system_name="Tg(MPO::EGFP)^114 zebrafish" readout="minimal effective concentration" observed_measurement=10
molecule="O=C1c2ccccc2C(=O)N1c1nc2ccc(C(F)(F)F)cc2s1 [Compound C59]" system_name="Tg(MPO::EGFP)^114 zebrafish" readout="minimal effective concentration" observed_measurement=100
molecule="O=C1c2cccc([N+](=O)[O-])c2CN1C1C2CC3CC(C2)CC1C3 (stereo not drawn) [Compound C82]" system_name="Tg(MPO::EGFP)^114 zebrafish" readout="minimal effective concentration" observed_measurement=5
molecule="O=C1NC(=S)CCC1N1C(=O)c2cccc([N+](=O)[O-])c2C1=O (stereo not drawn) [Compound C7]" system_name="Tg(MPO::EGFP)^114 zebrafish" readout="minimal effective concentration" observed_measurement=10
molecule="O=C1c2cccc([N+](=O)[O-])c2CN1C12CC3CC(CC(C3)C1)C2 [Compound C84]" system_name="Tg(MPO::EGFP)^114 zebrafish" readout="minimal effective concentration" observed_measurement=10

* * *

- System: fli1:EGFP zebrafish embryos
- Assay procedure: fli1:EGFP zebrafish embryo angiogenesis assay (intersegmental vessel outgrowth and number)
- Format: in vivo
- Condition label: fli1:EGFP embryos, 24 h incubation, result in words
Readout: Anti-angiogenic activity (loss of ISVs or inhibition of ISV outgrowth)

compound="Nc1cccc2c1CN(C1C3CC4CC(C3)CC1C4)C2=O (centres unmarked) [Compound C83]" observed_measurement="anti-angiogenic activity"
compound="O=C1c2ccccc2C(=S)N1C1CCC(=S)NC1=S (centres unmarked) [Compound C4]" observed_measurement="anti-angiogenic activity"
compound="CC(=O)Oc1ccc2c(c1)C(=O)N(C1CCC(=O)NC1=O)C2=O (centres unmarked) [Compound C18]" observed_measurement="anti-angiogenic activity"
